observable: melting point

{"molecule": "Cc1cc(C)cc(Sc2cncc3sc(C(N)=O)cc23)c1", "melting point": "177 to 179 °C"}
{"molecule": "CCCC(=O)c1ccc(O)c(OC)c1", "melting point": "40 to 41 °C"}
{"molecule": "COc1cc(C=CC(=O)c2cccc(O)c2)cc(OC)c1", "melting point": "126 to 127 °C"}
{"molecule": "N#Cc1cccc(C2=Nc3cc(O)c(-c4ccc(F)cc4)cc3NC(=O)C2)c1", "melting point": "> 250 °C"}
{"molecule": "CCN(CC)c1ccc2c(c1)CC(=O)N2", "melting point": "122 to 124 °C"}
{"molecule": "Oc1cccc(CCNCc2ccccc2)c1", "melting point": "86 to 88 °C"}
{"molecule": "CC(C)CN(C(=O)N(CCCl)N=O)C1O[C@H](CO)[C@H](O)[C@H](O)[C@H]1O (stereo not given in full)", "melting point": "48 to 53 °C"}
{"molecule": "CC1(C)COC(c2ccc(CC34CCCCN3C(=O)N(c3cc(Cl)cc(Cl)c3)C4=O)cc2)=N1 (stereo not given)", "melting point": "87.2 °C"}
{"molecule": "Cc1cccc(NC(=O)NC2CC(c3ccccc3)c3ccccc3N(CC(=O)NC(C)(C)C)C2=O)c1 (stereo not given)", "melting point": "263 to 266 °C"}
{"molecule": "COc1ccc(-c2nnsc2-c2ccc(OC)cc2)cc1", "melting point": "80 to 82 °C"}

Query block: Query: melting point; subject: Cn1cncc1C(O)(c1ccc(Cl)cc1)c1ccc2c(c1)C(c1cccc(Cl)c1)=NCC(=O)N2 (stereo not given)
Result block: 200 °C

Query block: Query: melting point; subject: CCOC(=O)C1(c2cccc(OCc3ccc4c(ccc(=O)n4C)c3)c2)CCOCC1
Result block: 109 to 110 °C

Query block: Query: melting point; subject: CCn1cc(CN(C(=O)C2CCc3c(O)cccc32)c2ccc(C(C)C)cc2)cn1 (stereo not given)
Result block: 205 to 206 °C

Query block: Query: melting point; subject: CCCc1nc2c(N)nc3ccccc3c2n1CC(N)=O
Result block: > 300 °C

Query block: Query: melting point; subject: Cn1cc(-c2ccc(Cl)c(OC3SCC(O)C(O)C3O)c2)cn1 (stereo not given)
Result block: 158 °C

Query block: Query: melting point; subject: C=CCc1ccc2oc(C=CC(=O)OCC)c(C)c2c1O
Result block: 125 to 127 °C

Query block: Query: melting point; subject: CCCCc1nc(S(=O)(=O)c2ccccc2)c(C(=O)O)n1Cc1ccc(-c2ccccc2C(=O)O)cc1
Result block: 140 °C

Query block: Query: melting point; subject: O=c1[nH]c(-c2ccccc2)c(-c2ccncc2)o1
Result block: 300 °C

Query block: Query: melting point; subject: CCOC(=O)Cn1c(=O)n(-c2ccccc2Cl)c(=O)c2c(C)c(C(=O)OCC)c(C)cc21
Result block: 158 to 159 °C

Query block: Query: melting point; subject: CCOCCOc1ccc(COc2cnn(C(C)(C)C)c(=O)c2Cl)cc1
Result block: 82 to 83 °C
